Data origin, for the record: patent US20190338002A1

Catalogue of koff readings, one per entry.
- tested_system: T1, rat alpha CGRP (SEQ ID NO: 82) (rat)
- T1 construct: also called rat αCGRP; rat α-CGRP
- T1 peptide: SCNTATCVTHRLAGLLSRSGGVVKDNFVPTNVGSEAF
- measurement_description: SPR, 37 C, mutein captured, CGRP analyte
parameter_measured: koff (s⁻¹)

- binder: "lipocalin mutein SEQ ID NO: 28 (designed binder, biotinylated by NHS chemistry for capture in SPR) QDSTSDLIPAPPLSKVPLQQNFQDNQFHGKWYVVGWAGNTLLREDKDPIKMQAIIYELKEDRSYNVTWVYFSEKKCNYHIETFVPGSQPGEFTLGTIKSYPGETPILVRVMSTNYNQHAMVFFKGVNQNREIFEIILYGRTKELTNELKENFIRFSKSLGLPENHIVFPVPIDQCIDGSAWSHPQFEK"
  value_measured: "6.88e-05"
- binder: "lipocalin mutein SEQ ID NO: 9 (designed binder, biotinylated by NHS chemistry for capture in SPR) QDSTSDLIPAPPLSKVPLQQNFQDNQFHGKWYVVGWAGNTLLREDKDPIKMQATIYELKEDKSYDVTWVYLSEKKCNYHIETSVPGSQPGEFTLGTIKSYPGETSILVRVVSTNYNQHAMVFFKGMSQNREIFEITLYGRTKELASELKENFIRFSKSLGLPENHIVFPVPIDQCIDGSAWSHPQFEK"
  value_measured: 0.000318
- binder: "lipocalin mutein SEQ ID NO: 24 (designed binder, biotinylated by NHS chemistry for capture in SPR) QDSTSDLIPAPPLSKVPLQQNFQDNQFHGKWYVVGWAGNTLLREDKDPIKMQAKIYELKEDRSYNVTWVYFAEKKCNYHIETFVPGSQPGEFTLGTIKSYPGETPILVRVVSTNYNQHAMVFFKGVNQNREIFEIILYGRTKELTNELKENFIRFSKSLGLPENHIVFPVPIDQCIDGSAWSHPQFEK"
  value_measured: "2.08e-05"
- binder: "lipocalin mutein SEQ ID NO: 16 (designed binder, biotinylated by NHS chemistry for capture in SPR) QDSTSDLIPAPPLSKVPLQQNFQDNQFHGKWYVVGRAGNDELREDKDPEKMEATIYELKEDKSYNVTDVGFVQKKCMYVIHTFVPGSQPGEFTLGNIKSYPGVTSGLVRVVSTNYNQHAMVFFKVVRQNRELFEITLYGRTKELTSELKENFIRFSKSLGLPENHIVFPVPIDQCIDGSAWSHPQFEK"
  value_measured: 0.000398
- binder: "lipocalin mutein SEQ ID NO: 19 (designed binder, biotinylated by NHS chemistry for capture in SPR) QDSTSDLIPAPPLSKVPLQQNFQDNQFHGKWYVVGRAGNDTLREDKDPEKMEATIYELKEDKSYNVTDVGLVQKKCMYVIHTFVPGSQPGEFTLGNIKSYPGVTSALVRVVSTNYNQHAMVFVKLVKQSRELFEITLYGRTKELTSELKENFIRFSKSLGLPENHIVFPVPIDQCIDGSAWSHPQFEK"
  value_measured: "3.02e-05"
- binder: "lipocalin mutein SEQ ID NO: 7 (designed binder, biotinylated by NHS chemistry for capture in SPR) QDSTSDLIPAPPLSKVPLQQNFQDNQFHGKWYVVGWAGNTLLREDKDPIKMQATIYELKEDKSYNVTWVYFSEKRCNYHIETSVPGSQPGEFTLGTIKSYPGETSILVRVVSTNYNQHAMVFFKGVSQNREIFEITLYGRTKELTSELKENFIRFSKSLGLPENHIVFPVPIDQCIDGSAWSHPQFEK"
  value_measured: 0.000313
- binder: "lipocalin mutein SEQ ID NO: 12 (designed binder, biotinylated by NHS chemistry for capture in SPR) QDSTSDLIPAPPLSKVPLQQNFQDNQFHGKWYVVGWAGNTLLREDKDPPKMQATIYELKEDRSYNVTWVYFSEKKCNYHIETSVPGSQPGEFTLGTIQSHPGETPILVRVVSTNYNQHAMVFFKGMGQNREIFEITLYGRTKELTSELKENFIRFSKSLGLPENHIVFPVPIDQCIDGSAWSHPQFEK"
  value_measured: 0.000299
